# STUDY_CONDITIONS: bacteroides intestinalis, 12 h, 2 µM;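 further: parent drug quantified by LC–MS before and after incubation with the bacterium, comparing the two levels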
# Description: The drug is tested on Bacteroides intestinalis strain: DSM17393 for biotransformation. The drug concentrations were measured before and after a 12-h incubation by liquid-chromatography-coupled mass spectrometry (LC–MS)
VALUE_KIND: Bacterial Biotransformation

Examples with answers:
COc1ccc2c(c1OC)C(=O)O[C@@H]2[C@H]1c2c(cc3c(c2OC)OCO3)CCN1C    Compound metabolized
Clc1ccc(Cn2c(CN3CCCC3)nc3ccccc32)cc1    Compound NOT metabolized
COc1ccccc1OCC(O)COC(N)=O (centres undefined)    Compound NOT metabolized
CN1C(=O)CCS(=O)(=O)C1c1ccc(Cl)cc1 (centres undefined)    Compound NOT metabolized
Nc1nnc(-c2cccc(Cl)c2Cl)c(N)n1    Compound NOT metabolized
CN[C@H]1CC[C@@H](c2ccc(Cl)c(Cl)c2)c2ccccc21    Compound NOT metabolized
CC[C@H](C)C(=O)O[C@H]1CCC=C2C=C[C@H](C)[C@H](CC[C@@H]3C[C@@H](O)CC(=O)O3)[C@H]21    Compound metabolized
COC(=O)Nc1nc2ccc(C(=O)c3ccccc3)cc2[nH]1    Compound NOT metabolized

Now examine the next entry.
Bacterial Biotransformation lookup needed for "O=C(CCCN1CCC(O)(c2ccc(Cl)cc2)CC1)c1ccc(F)cc1" , thanks.
Compound NOT metabolized
